# Tested on: Human immunodeficiency virus 1
# assay_procedure: Fold resistance, ratio of ID50 for HIV-1 recombinant NNTRI-resistant reverse transcriptase K103N mutant to ID50 for wild type HIV-1 recombinant reverse transcriptase
measured_parameter: Ratio
Reply with just the number.

These recorded examples may help you get a feel for the data.
compound | Ratio
CC[C@@H](C)Sc1nc([C@@H](C)c2c(F)cccc2Cl)c(C)c(=O)[nH]1 | 69
CCCCSc1nc(C(C)c2c(F)cccc2F)c(CC)c(=O)[nH]1 (racemic) | 130

--- query ---
So what does the record say about Ratio for CC[C@H](C)Sc1nc([C@H](C)c2c(F)cccc2Cl)cc(=O)[nH]1 (racemic) ?
229

* * *

# Test system: Human immunodeficiency virus 1
# assay_procedure: Fold resistance, ratio of ID50 for HIV-1 recombinant NNTRI-resistant reverse transcriptase Y181I mutant to ID50 for wild type HIV-1 recombinant reverse transcriptase
measured_parameter: Ratio
Reply with just the number.

compound | Ratio
Cc1c(C(C)c2c(F)cccc2F)nc(SC2CCCC2)[nH]c1=O (racemic) | 180

So what does the record say about Ratio for CCCSc1nc(C(CC)c2c(F)cccc2Cl)c(C)c(=O)[nH]1 (racemic) ?
700

So what does the record say about Ratio for CCCSc1nc(C(CC)c2c(F)cccc2F)c(C)c(=O)[nH]1 (racemic) ?
600

* * *

CC50 for assorted molecules
# assay_procedure: Cytotoxicity against human MT4 cells assessed as induction of cell death by MTT method
# Format: cell-based

These recorded examples may help you get a feel for the data.
molecule | CC50
CCC(C)Sc1nc(C(C)c2c(F)cccc2Cl)c(C)c(=O)[nH]1 (racemic) | > 1.5 µM
CCCSc1nc(Cc2c(F)cccc2Cl)c(C)c(=O)[nH]1 | > 76 µM
CCCCSc1nc(C(C)c2c(F)cccc2Cl)cc(=O)[nH]1 (racemic) | > 73 µM
CCc1c(C(C)c2c(F)cccc2F)nc(SC(C)C)[nH]c1=O (racemic) | > 3 µM
CC[C@H](C)Sc1nc([C@@H](C)c2c(F)cccc2Cl)cc(=O)[nH]1 | > 73 µM
CCC(C)Sc1nc(O)c(C)c(C(C)c2c(F)cccc2F)n1 (racemic) | > 3 µM
CCC(C)Sc1nc(C(CC)c2c(F)cccc2F)c(C)c(=O)[nH]1 (racemic) | > 3 µM
O=C1Nc2ccc(Cl)cc2[C@@](C#CC2CC2)(C(F)(F)F)O1 [EFAVIRENZ] | > 3 µM
CCC(C)Sc1nc(C(CC)c2c(F)cccc2Cl)c(C)c(=O)[nH]1 (racemic) | > 3 µM

So what does the record say about CC50 for CCCCSc1nc(C(C)c2c(F)cccc2Cl)c(CC)c(=O)[nH]1 (racemic) ?
> 3 µM

* * *

# assay_procedure: Cytotoxicity against human MT4 cells assessed as induction of cell death by MTT method
# Type: cell-based
measured_parameter: CC50

So what does the record say about CC50 for CC(C)Sc1nc(C(C)c2c(F)cccc2Cl)cc(=O)[nH]1 (racemic) ?
> 75 µM

So what does the record say about CC50 for CCCCSc1nc(C(C)c2c(F)cccc2Cl)c(C)c(=O)[nH]1 (racemic) ?
> 1.5 µM

So what does the record say about CC50 for CCC(c1nc(SC2CCCC2)[nH]c(=O)c1C)c1c(F)cccc1F (racemic) ?
30 µM

So what does the record say about CC50 for CCC(c1nc(SC(C)C)[nH]c(=O)c1C)c1c(F)cccc1Cl (racemic) ?
> 3 µM

So what does the record say about CC50 for CC[C@@H](C)Sc1nc([C@@H](C)c2c(F)cccc2Cl)c(C)c(=O)[nH]1 ?
> 70.4 µM

* * *

# assay_procedure: Cytotoxicity against human MT4 cells assessed as induction of cell death by MTT method
# Format: cell-based
measured_parameter: CC50

These recorded examples may help you get a feel for the data.
compound | CC50
CCCSc1nc(Cc2c(F)cccc2Cl)cc(=O)[nH]1 | > 80 µM
CCCSc1nc(C(CC)c2c(F)cccc2F)c(C)c(=O)[nH]1 (racemic) | > 3 µM
CC[C@H](C)Sc1nc([C@H](C)c2c(F)cccc2Cl)cc(=O)[nH]1 (racemic) | > 39 µM
CC[C@@H](C)Sc1nc([C@@H](C)c2c(F)cccc2Cl)cc(=O)[nH]1 | > 52 µM
CCCSc1nc(C(C)c2c(F)cccc2F)c(CC)c(=O)[nH]1 (racemic) | > 3 µM
Cc1c([C@@H](C)c2c(F)cccc2Cl)nc(SC(C)C)[nH]c1=O | > 36.9 µM

So what does the record say about CC50 for CCC(C)Sc1nc(Cc2c(F)cccc2Cl)c(C)c(=O)[nH]1 (stereo unspecified) ?
> 73 µM

So what does the record say about CC50 for CC[C@@H](C)Sc1nc([C@H](C)c2c(F)cccc2Cl)cc(=O)[nH]1 ?
> 31 µM

So what does the record say about CC50 for CCCCSc1nc(C(C)c2c(F)cccc2F)c(CC)c(=O)[nH]1 (racemic) ?
> 3 µM

* * *

# System: Human immunodeficiency virus type 1 reverse transcriptase (Human immunodeficiency virus 1), Q72547 [K103N]
Using ID50 as the sorting value, the categories are LOW = under 0.5 µM, MID = from 0.5 µM up to 1 µM, HIGH = 1 µM and over

molecule | discrete_label
CCC(c1nc(SC2CCCC2)[nH]c(=O)c1C)c1c(F)cccc1Cl (racemic) | LOW
CCc1c(C(C)c2c(F)cccc2Cl)nc(SC2CCCC2)[nH]c1=O (racemic) | HIGH
CCCCSc1nc(C(C)c2c(F)cccc2Cl)c(C)c(=O)[nH]1 (racemic) | MID
CCCSc1nc(C(C)c2c(F)cccc2Cl)cc(=O)[nH]1 (racemic) | HIGH
Cc1c(C(C)c2c(F)cccc2F)nc(SC2CCCC2)[nH]c1=O (racemic) | LOW

Band of CCCSc1nc(C(C)c2c(F)cccc2Cl)c(C)c(=O)[nH]1 (racemic) ?
HIGH

Band of CCc1c(C(C)c2c(F)cccc2F)nc(SC(C)CC)[nH]c1=O (racemic) ?
LOW

Band of CCCCSc1nc(C(C)c2c(F)cccc2Cl)cc(=O)[nH]1 (racemic) ?
HIGH

* * *

# Tested on: Human immunodeficiency virus 1
# assay_procedure: Fold resistance, ratio of ID50 for HIV-1 recombinant NNTRI-resistant reverse transcriptase K103N mutant to ID50 for wild type HIV-1 recombinant reverse transcriptase
Parameter threshold = 100. Response is MET when Ratio meets or exceeds it, else NOT MET.

These recorded examples may help you get a feel for the data.
molecule | measured_target | discrete_label
CCCCSc1nc(C(C)c2c(F)cccc2Cl)c(C)c(=O)[nH]1 (racemic) | Human immunodeficiency virus 1 | MET
CC[C@@H](C)Sc1nc([C@@H](C)c2c(F)cccc2Cl)cc(=O)[nH]1 | Human immunodeficiency virus 1 | MET
CC[C@@H](C)Sc1nc([C@H](C)c2c(F)cccc2Cl)cc(=O)[nH]1 | Human immunodeficiency virus 1 | MET
CCCSc1nc(C(CC)c2c(F)cccc2F)c(C)c(=O)[nH]1 (racemic) | Human immunodeficiency virus 1 | NOT MET
CCC(C)Sc1nc(C(C)c2c(F)cccc2Cl)cc(=O)[nH]1 (racemic) | Human immunodeficiency virus 1 | MET
CCCSc1nc(C(CC)c2c(F)cccc2Cl)c(C)c(=O)[nH]1 (racemic) | Human immunodeficiency virus 1 | MET

Please indicate if the recorded Ratio for CCCCSc1nc(C(C)c2c(F)cccc2Cl)cc(=O)[nH]1 (racemic) meets or exceeds 100.
MET

Please indicate if the recorded Ratio for Cc1c(C(C)c2c(F)cccc2F)nc(SC2CCCC2)[nH]c1=O (racemic) meets or exceeds 100.
NOT MET

* * *

# Test system: Human immunodeficiency virus 1
# assay_procedure: Antiviral activity against HIV-1 harboring NNTRI-resistant reverse transcriptase K103N mutant infected in human MT4 cells assessed as inhibition of virus-induced cytopathic effect by MTT method
# Format: functional, organism-based
# test_context: Human immunodeficiency virus 1, MT4
Label 1 when EC50 < 1000 nM; otherwise 0.

molecule | discrete_label
CCCSc1nc(C(C)c2c(F)cccc2Cl)c(C)c(=O)[nH]1 (racemic) | 1

Now consider the entry below.
Lab log: compare recorded EC50 with 1000 nM; is it strictly lower for CC[C@H](C)Sc1nc([C@H](C)c2c(F)cccc2Cl)c(C)c(=O)[nH]1 (racemic) ?
0

* * *

# System: Human immunodeficiency virus 1
# assay_procedure: Antiviral activity against HIV-1 harboring NNTRI-resistant reverse transcriptase Y181C mutant infected in human MT4 cells assessed as inhibition of virus-induced cytopathic effect by MTT method
# Assay type: functional, organism-based
# test_context: Human immunodeficiency virus 1, MT4
Label MET when EC50 < 2000 nM; otherwise NOT MET.

molecule | discrete_label
O=c1cc(Cc2c(F)cccc2Cl)nc(SC2CCCC2)[nH]1 | NOT MET
CCC(c1nc(SC(C)C)[nH]c(=O)c1C)c1c(F)cccc1F (racemic) | MET
CCc1c(C(C)c2c(F)cccc2F)nc(SC(C)CC)[nH]c1=O (racemic) | NOT MET
CCc1c(C(C)c2c(F)cccc2Cl)nc(SC(C)CC)[nH]c1=O (racemic) | NOT MET
CC[C@H](C)Sc1nc([C@@H](C)c2c(F)cccc2Cl)c(C)c(=O)[nH]1 | NOT MET
CCCCSc1nc(C(CC)c2c(F)cccc2F)c(C)c(=O)[nH]1 (racemic) | NOT MET

Lab log: compare recorded EC50 with 2000 nM; is it strictly lower for CCC(C)Sc1nc(C(C)c2c(F)cccc2Cl)cc(=O)[nH]1 (racemic) ?
NOT MET

Lab log: compare recorded EC50 with 2000 nM; is it strictly lower for CCCCSc1nc(C(CC)c2c(F)cccc2Cl)c(C)c(=O)[nH]1 (racemic) ?
NOT MET

Lab log: compare recorded EC50 with 2000 nM; is it strictly lower for CCCCSc1nc(C(C)c2c(F)cccc2Cl)c(CC)c(=O)[nH]1 (racemic) ?
NOT MET
